Collected inhibition values appear next to each entry.
- Target System: Solute carrier family 2, facilitated glucose transporter member 1 (Homo sapiens) (UniProt P11166)
- Sequence (P11166 whole entry): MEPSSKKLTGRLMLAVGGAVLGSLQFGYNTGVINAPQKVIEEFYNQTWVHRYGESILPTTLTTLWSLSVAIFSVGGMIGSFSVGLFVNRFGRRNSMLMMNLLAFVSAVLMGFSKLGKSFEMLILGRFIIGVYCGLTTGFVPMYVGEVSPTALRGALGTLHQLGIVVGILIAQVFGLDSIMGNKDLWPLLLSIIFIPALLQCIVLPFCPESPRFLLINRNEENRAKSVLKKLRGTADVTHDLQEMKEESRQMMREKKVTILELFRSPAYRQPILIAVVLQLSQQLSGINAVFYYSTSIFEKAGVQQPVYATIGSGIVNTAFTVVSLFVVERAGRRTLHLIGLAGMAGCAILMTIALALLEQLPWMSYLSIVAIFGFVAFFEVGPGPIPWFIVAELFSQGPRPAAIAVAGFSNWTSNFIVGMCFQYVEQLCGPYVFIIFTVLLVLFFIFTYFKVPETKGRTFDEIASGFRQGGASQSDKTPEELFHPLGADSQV
- Assay Summary: ST_JUDE_LEISH: Cytotoxicity at 2uM final concentration against transgenic Leishmania Mexicana promastigotes LmGLUT1 that are glucose transport deficient and complemented with the human glucose transporter GLUT1. Activity is measured by DNA content using SYBR green in vitro
- Type: functional
Property Measured: inhibition (%)

O=C1CCCN1CCCNCc1ccc(-c2ccc(-c3nc4cc(F)ccc4[nH]3)s2)cc1: 2.19
O=c1cc(NCCC(CNCc2ccc(Br)o2)NCc2cc(Br)cc(Br)c2)[nH]c2ccccc12 (stereo not drawn): 8.13
Cc1cc(O)c2c(c1)OC(C)(C)C=C2C1=CCN(Cc2ccccc2)CC1: 5.82
CCn1cc(-c2cc(C(=O)Nc3ccc(OC)cc3C)c3ccccc3n2)c(C)n1: 7.19
Fc1ccc(C=NNc2nc3ccccc3[nH]2)cc1: 16.4
CN(C)CCCNCc1cn(S(=O)(=O)c2ccccc2Cl)c2ccccc12: 5.36
CC(c1cccc(Nc2nccc(-c3c(-c4cccc(NC(=O)c5c(F)cccc5F)c4)nn4ncccc34)n2)c1)S(C)(=O)=O (stereo not drawn): -2.21
CC(=O)Nc1ccc(CN(Cc2cccc(OC(C)(C)C)c2)Cc2ccc3c(c2)OCCO3)cc1: 4.55
O=C(Nc1cccc(CN2CCCN(Cc3ccc4c(c3)OCO4)CC2)c1)c1ccc(Cl)c(Cl)c1: 6.43
CCOc1cc(C(=O)N[C@@H](Cc2ccccc2)[C@H](O)CNCc2cc(OC)cc(OC)c2)cc(N2CCCCS2(=O)=O)c1: 0.3
CN1CCN(CCCN(Cc2cccc(-c3cccc(CNCCc4ccccc4)c3)c2)C(=O)Nc2ccccc2)CC1: 8.85
O=C(Nc1cccc(OC2CCN(Cc3ccccc3)CC2)c1)c1ccc([N+](=O)[O-])cc1: 4.89
COc1cc(CNC[C@@H](O)[C@H](Cc2ccccc2)NC(=O)c2cc(C3CCCC3)cc(N3CCCCS3(=O)=O)c2)cc(OC)c1: 5.15
CCc1nc2c(cnn2CC)c(NC2CCOCC2)c1CNC(=O)N1CCOCC1: 3.81
Cc1cc(-c2cnc(N)c(-c3ccc(N4CCN(C)CC4)cc3)c2)cc(C)c1O: 3.43
Cc1cc(F)ccc1N(c1nc(-c2cc(Cl)ccc2Cl)cs1)C1CCNC1 (stereo not drawn): 8.82
c1ccc(C2CCC(N3CCC(N4CCCC4)CC3)CC2)cc1 (stereo not drawn): 0.84
COc1ccc(C2C(C(=O)Nc3cc(OC)c(OC)c(OC)c3)c3cc(OC)c(OC)cc3C(=O)N2C)cc1 (stereo not drawn): 1.9
CC(C)c1ccc(NC(=O)c2ccc(C(=O)NC3CCN(Cc4ccccc4)CC3)cc2)cc1: 1.09
CC1CCCCN1Cc1cccc(-c2c[nH]c3nc(NC4CCCC4)ncc23)c1 (stereo not drawn): 10.8
COc1ccc(S(=O)(=O)NC2CCN(CCCOc3ccnc4cc(Cl)ccc34)C2)cc1OC (stereo not drawn): 3.41
Cc1cccc2nc(-c3ccc(-c4ccc(CN5CCCC(O)C5)cc4)s3)[nH]c12 (stereo not drawn): 6.59
CCOc1ccc2c(=NN=Cc3ccccc3F)cc(C)[nH]c2c1: 1.77
c1ccc(CNCc2cccc(-c3ccc(-c4nc5ccccc5[nH]4)cc3)c2)cc1: 6.45
CN1CCN(CCCN(Cc2cccc(-c3ccc(CNCc4ccc5c(c4)OCO5)cc3)c2)C(=O)Nc2ccccc2)CC1: 1.77
COc1ccc(N2CCN(CCCC/C=C/c3ccc(NC(=O)c4cc(Cl)cc(Cl)c4)cc3)CC2)c(OC)c1: 2.58
COc1ccc2c(N/N=C/c3cccc([N+](=O)[O-])c3)ccnc2c1: -2.24
CCCNC(=O)Nc1cc2cc(-c3cccc(CN4CCCCC4)c3)ccc2n2c(C)nnc12: 0.33
Cc1cccc2nc(-c3ccc(-c4ccc(NC(=O)Nc5cccc(C#N)c5)cc4)cc3)[nH]c12: 9.74
Oc1ccc(CCNc2nc(NCc3ccccc3-c3ccc(C(F)(F)F)cc3)nc(NC3CCNCC3)n2)cc1: 1.32
CC1CN(c2ccc(NC(=O)c3cccs3)cc2)CCN1Cc1cccc(F)c1 (stereo not drawn): -0.49
CC(C)C(NC(=O)Cc1cccc2ccccc12)C(=O)Nc1cccc(C#N)c1 (stereo not drawn): 2.08
O=C(/C=C/c1ccc(Cl)cc1Cl)NCCCCCN1CCC(c2c[nH]c3ccccc23)CC1: -2.21
COc1cc(Cc2cnc(N)nc2N)cc(OC)c1OCCCCCN1C(=O)c2ccccc2C1=O: 3.29
Oc1ccc(CCNc2nc(NCCCOc3ccccc3-c3ccc(F)cc3)nc(N3CCNCC3)n2)cc1: 13.3
Cc1cc(F)ccc1Nc1nc(N(C)c2ccccc2)c2cc(OCCN(C)C)ccc2n1: 7.87
O=C(NCC1CCC(C(=O)NC2CCCc3ccccc32)CC1)c1ccc(O)c(-c2ccc(Cl)c(Cl)c2)c1 (stereo not drawn): 3.42
O=C(NCCCCCCNCc1ccc(-c2ccccc2)cc1)Nc1ccc(Cl)c(Cl)c1: 1.38
